System: HOP-62 multicell spheroids with HUVEC/MSC, viability
Experiment: Anticancer human tumor HOP-62 cell line growth inhibition [KRAS2];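 note: viability read after a week of compound exposure; 100% = DMSO vehicle-treated spheroids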
Details: second compound 1 µM; first compound 0.1 µM; active compounds read low
# Lookup of reported viability, T/C keyed by entry
All answers are understood in %, so give the number only.

O=C(c1cc(Cc2n[nH]c(=O)c3ccccc23)ccc1F)N1CCN(C(=O)C2CC2)CC1 + COc1cc2nc(C)nc(NC(C)c3cc(N)cc(C(F)(F)F)c3)c2cc1OC1CCOC1 ... 98.2
CCNC(=O)CC1N=C(c2ccc(Cl)cc2)c2cc(OC)ccc2-n2c(C)nnc21 (stereo not given) + CC1OCC2(CCN(c3cnc(Sc4ccnc(N)c4Cl)c(N)n3)CC2)C1N ... 55.6
CCN1CCN(Cc2ccc(Nc3ncc(F)c(-c4cc(F)c5nc(C)n(C(C)C)c5c4)n3)nc2)CC1 + CC1OCC2(CCN(c3cnc(Sc4ccnc(N)c4Cl)c(N)n3)CC2)C1N ... 42.1
CC1(C)CCC(CN2CCN(c3ccc(C(=O)NS(=O)(=O)c4ccc(NCC5CCOCC5)c([N+](=O)[O-])c4)c(Oc4cnc5[nH]ccc5c4)c3)CC2)=C(c2ccc(Cl)cc2)C1 + CC1OCC2(CCN(c3cnc(Sc4ccnc(N)c4Cl)c(N)n3)CC2)C1N ... 54.4

In the following, a different molecule is considered.
Identify the measured viability, T/C of CC(C)n1nc(-c2ccc3oc(N)nc3c2)c2c(N)ncnc21 + CNCc1ccccc1-c1csc(C(C)Nc2nc(C)nc3cc(OC)c(OC)cc23)c1 for HOP-62 multicell spheroids with HUVEC/MSC, viability.
14.1
